protocol details: total protein half-life in vivo (active degradation + dilution); higher = more stable protein
recorded conditions: E. coli NCM3722 delta-clpP delta-lon delta-hslV; growth: N-lim chemostat; doubling time 6 h
Exercise: for every item that follows, state its recorded total protein half-life in vivo.
One number for each entry, in h.

// solved cases for total protein half-life in vivo follow
MDALELLINRRSASRLAEPAPTGEQLQNILRAGMRAPDHKSMQPWHFFVIEGEGRERFSAVLEQGAIAAGSDDKAIDKARNAPFRAPLIITVVAKCEENHKVPRWEQEMSAGCAVMAMQMAAVAQGFGGIWRSGALTESPVVREAFGCREQDKIVGFLYLGTPQLKASTSINVPDPTPFVTYF [P0ACY1] : 5.15
MFTFIKKVIKTGTATSSYPLEPIAVDKNFRGKPEQNPQQCIGCAACVNACPSNALTVETDLATGELAWEFNLGHCIFCGRCEEVCPTAAIKLSQEYELAVWKKEDFLQQSRFALCNCRVCNRPFAVQKEIDYAIALLKHNGDSRAENHRESFETCPECKRQKCLVPSDRIELTRHMKEAI : 2.95

Next up:
Request: Read the entry MELIFLGTSAGVPTRTRNVTAILLNLQHPTQSGLWLFDCGEGTQHQLLHTAFNPGKLDKIFISHLHGDHLFGLPGLLCSRSMSGIIQPLTIYGPQGIREFVETALRISGSWTDYPLEIVEIGAGEILDDGLRKVTAYPLEHPLECYGYRIEEHDKPGALNAQALKAAGVPPGPLFQELKAGKTITLEDGRQINGADYLAAPVPGKALAIFGDTGPCDAALDLAKGVDVMVHEATLDITMEAKANSRGHSSTRQAATLAREAGVGKLIITHVSSRYDDKGCQHLLRECRSIFPATELANDFTVFNV [P0A8V0] and write its reported total protein half-life in vivo.
Response: 4.1

* * *

protocol details: total protein half-life in vivo (active degradation + dilution); higher = more stable protein
recorded conditions: wild type E. coli NCM3722; growth: N-lim chemostat; doubling time 12 h
metric name: total protein half-life in vivo (h)
Give bare numbers, in h.

For every record below, what is its total protein half-life in vivo?
1. MKKILLMLSLLFFTTAGFSEVSDTLVTGGYDKQAMSDAIKHARKETDKFIEVMNKKDADTFAVKAPITDHGRTEHFWLTDVTYSNGMFIGVISNDPGIVTNVEYGQEWKIKKEDISDWMYTRGDKIYGGYTIDPLLVTYPKEEADELRAKLVR
2. MKLNIRAQTAQNQHNNSPIVLVHGLFGSLDNLGVLARDLVNDHNIIQVDMRNHGLSPRDPVMNYPAMAQDLVDTLDAQQIDKATFIGHSMGGKAVMALTALASDRIDKLVAIDIAPVDYHVRRHDEIFAAINAVSESDAQTRQQAAAIMRQHLNEEGVIQFLLKSFVDGEWRFNVPVLWDQYPHIVGWEKIPAWDHPALFIPGGNSPYVSEQYRDDLLAQFPQARAHVIAGAGHWVHAEKPDAVLRAIRRYLND

Response:
[7.64, 10]

* * *

protocol details: total protein half-life in vivo (active degradation + dilution); higher = more stable protein
recorded conditions: wild type E. coli NCM3722; growth: N-lim chemostat; doubling time 12 h
metric name: total protein half-life in vivo (h)
One number for each entry, in h.

For every record below, what is its total protein half-life in vivo?
1. MIDLRSDTVTRPSRAMLEAMMAAPVGDDVYGDDPTVNALQDYAAELSGKEAAIFLPTGTQANLVALLSHCERGEEYIVGQAAHNYLFEAGGAAVLGSIQPQPIDAAADGTLPLDKVAMKIKPDDIHFARTKLLSLENTHNGKVLPREYLKEAWEFTRERNLALHVDGARIFNAVVAYGCELKEITQYCDSFTICLSKGLGTPVGSLLVGNRDYIKRAIRWRKMTGGGMRQSGILAAAGIYALKNNVARLQEDHDNAAWMAEQLREAGADVMRQDTNMLFVRVGEENAAALGEYMKARNVLINASPIVRLVTHLDVSREQLAEVAAHWRAFLAR
2. MTGMTNVTKLASEPSGQEFLVFTLGDEEYGIDILKVQEIRGYDQVTRIANTPAFIKGVTNLRGVIVPIVDLRIKFSQVDVDYNDNTVVIVLNLGQRVVGIVVDGVSDVLSLTAEQIRPAPEFAVTLSTEYLTGLGALGDRMLILVNIEKLLNSEEMALLDSAASEVA [P0A964]

Response:
6.44
2.23
